# experimental-system: CDK2/Cyclin E1 (Homo sapiens)
# measurement-notes: ADP-Glo Luminescent Kinase Assay (CDK2/E1-37C)
# Type: biochemical
# experimental-conditions: 0.18 nM CDK2/Cyclin E1, 100 μM ATP, Histone H1, 37° C.; read-out: ADPGLO (CDK2/E1-37C): IC50
pIC50: −log10 of the molar value.
Entries and their pIC50 values follow.

CC1(C)C[C@@H]1C(=O)N1CC2(CN(C(=O)c3cnn(Cc4ccccc4C(=O)O)c3)C[C@H]2COCc2cccc(C3CCC(C(F)(F)F)CC3)n2)C1 (some centres unmarked) :: ≥ 6.30
O=C(O)c1c(COC[C@@H]2CN(C(=O)c3cnn(Cc4ccc(F)cc4)c3)CC23CN(C(=O)C2CCO2)C3)cccc1C1CCC(C(F)(F)F)CC1 (some centres unmarked) :: 5.30 to 6.30

Query block: // lookup pIC50 for O=C(O)c1ccccc1Cn1cc(C(=O)N2C[C@@H](COCc3cccc(C4CCC(C(F)(F)F)CC4)c3F)C3(C2)CN(C(=O)C2(C(F)(F)F)CC2)C3)cn1 (stereo in doubt)
Result block: ≥ 6.30

Query block: // lookup pIC50 for `CC(C)(C(=O)N1CC2(CN(C(=O)c3cnn(Cc4ccc(F)cc4)c3)C[C@H]2COCc2cccc(C3=CCC(F)(F)CC3)c2C(=O)O)C1)C(F)(F)F`
Result block: ≥ 6.30

Query block: // lookup pIC50 for CC1(C)C[C@@H]1C(=O)N1CC2(CN(C(=O)c3cncs3)CC2COCc2cccc(-c3ccc(C(F)(F)F)cc3)c2C(=O)O)C1 (some centres unmarked)
Result block: 5.30 to 6.30

Query block: // lookup pIC50 for `CC(C)(C(=O)N1CC2(CN(C(=O)c3cnn(Cc4ccc(F)cc4)c3)C[C@H]2COCc2cccc(-c3csc(C(F)(F)F)c3)c2C(=O)O)C1)C(F)(F)F`
Result block: ≥ 6.30

Query block: // lookup pIC50 for CC(C)(C)OC(=O)c1c(COCC2CN(C(=O)c3cnn(Cc4ccc(F)cc4C(F)(F)F)c3)CC23CN(C(=O)C2(C(F)(F)F)CC2)C3)cccc1C1CCC(C(F)(F)F)CC1 (centres unmarked)
Result block: 5.30 to 6.30

Data provenance is patent US20260034123A1.
